Reported TGI values are given for each entry in this list.
System: MDA-MB-231 breast
Experiment: NCI tumour cell line growth inhibition, 48 h
recordedEndpoint: TGI

| molecule | targetOrTestSystem | observedResult |
| --- | --- | --- |
| CC(C)(C)c1cc(-c2cc(C(C)(C)C)[nH]n2)n[nH]1 | MDA-MB-231 breast | > 100 µM |
| NC(=O)C(=O)c1ncn(Cc2ccccc2)c1N | MDA-MB-231 breast | > 100 µM |
| Nc1ccccc1NC(=O)c1ccc(CNc2nccc(-c3cccnc3)n2)cc1 | MDA-MB-231 breast | > 100 µM |
| CC(=O)OCC(C)C1=C(OC(C)=O)C(=O)C2(C)C/C=C(/C)CC/C=C(\C)CCC(OC(C)=O)C(C)CCC12 (stereo unspecified) | MDA-MB-231 breast | 27.7 µM |
| CCCCc1ccc(Nc2nc(Cl)c3ncn(COCCOC(C)=O)c3n2)cc1 | MDA-MB-231 breast | 30.6 µM |
| C=C1CC2CCCC12C=O (stereo unspecified) | MDA-MB-231 breast | > 10 µM |

* * *

System: HCT-116 colon
Assay: NCI tumour cell line growth inhibition, 48 h
Catalogue of molecules with associated TGI

| molecule | TGI |
| --- | --- |
| C=C(C)C1CC/C(C)=C/CCC2(C)OC2CC/C(CO)=C\C1O (stereo not drawn) | > 100 µM |
| COc1cccc(CCC2CCCN(c3cc(C)nc(N)n3)C2)c1 (stereo not drawn) | 11 µM |
| COc1ccc(CC2C3=C(CCN2C(=O)C2CCC2)CC2(CC3)OCCO2)cc1O (stereo not drawn) | > 100 µM |

* * *

Measured TGI, listed per entry.
Tested on: HT29 colon
Assay: NCI tumour cell line growth inhibition, 48 h

| compound | TGI |
| --- | --- |
| COc1ccc(N=Cc2c(O)ccc3c2oc2cc(Cl)c(O)c(Cl)c23)cc1 | 37.8 µM |
| Cn1c(NNc2ccccc2)cc(=O)[nH]c1=O | > 100 µM |
| CN(C)c1ccc(/C=C/C(=O)[O-])cc1.CN(C)c1ccc(/C=C/C(=O)[O-])cc1.[Cu+2] | > 100 µM |
| CC(=O)N1N=C(c2ccc3ccccc3c2O)CC1c1cccs1 (configuration not stated) | > 100 µM |
| O=C1NC(=S)N/C1=C\c1cc2c(=O)c3ccccc3sc2s1 | > 100 µM |
| Nc1cc(F)ccc1CC(=O)O | > 100 µM |
| C=C1CC2CCCC12C=O (configuration not stated) | > 10 µM |

* * *

System: SN12C renal
Assay: NCI tumour cell line growth inhibition, 48 h

| compound | TGI |
| --- | --- |
| O=C(c1cc2ccccc2[nH]1)N1C2CCC1CN(CCOC(c1ccc(F)cc1)c1ccc(F)cc1)CC2 (centres undefined) | > 100 µM |
| Cc1ccc(/C=N/n2c(Cc3ccccc3)n[nH]c2=O)cc1 | > 100 µM |
| O=C1C(Cl)=C(Sc2nnc3c4ccccc4c4ccccc4c3n2)C(=O)c2ccccc21 | 33.1 µM |
| Cc1cc(Cl)cc2c(N=Nc3ccc(S(N)(=O)=O)cc3)c(O)[nH]c12 | > 25 µM |
| Nc1nc2c(ncn2C2CCC(CO)O2)c(=O)n1C(=O)c1ccccc1 (centres undefined) | > 100 µM |
| NC(CSCc1ccc(I)cc1)C(=O)O (centres undefined) | > 100 µM |
| C[C@]12CCc3nc(Nc4cccc(O)c4)sc3C1=CC[C@@H]1[C@@H]2CC[C@]2(C)/C(=N\NC(N)=S)CC[C@@H]12 | 5.31 µM |
| CCOP(=O)(C=C=C1CCC2[C@@H]3CCc4cc(OC)ccc4C3CC[C@]12C)OCC (some centres undefined) | 23 µM |
| O=S(=O)([O-])c1ccc(N=Cc2ccccc2[O-])cc1.O=S(=O)([O-])c1ccc(N=Cc2ccccc2[O-])cc1.[O]=[U+2]=[O] | > 100 µM |
